# Tested on: A-549
# experimental details: MTS cell viability, A-549 lung cancer
# Type: cell-based
# test settings: read-out: IC50, Other cancer types, 24 h
assay readout: IC50 (µM)

- compound: "CC(C)c1ccc2c(c1)CC[C@H]1[C@](C)(CN)CCC[C@]21C [leelamine, Dehydroabietylamine]"
  assay readout: "IC50"
  reading: 8.81

====

# System: LNCap
# experimental details: MTS cell viability, LNCap prostate cancer
# Assay type: cell-based
# test settings: read-out: IC50, Other cancer types, 24 h
pIC50: −log10 of the molar value.

- compound: "CC(C)c1ccc2c(c1)CC[C@H]1[C@](C)(CN)CCC[C@]21C [leelamine, Dehydroabietylamine]"
  study target: "LNCap"
  pIC50: 4.96

This collection of values is drawn from paper PMC4377161.
